# credit: patent US10765114B2

Recorded pest or weed control at 70 g/ha for the following compounds
- System: Key Grass and Sedge Weeds as well as Grass Crops
- test.name: Post-Emergent Test II (Table 6)
- Format: in vivo
- experimental.context: post-emergence, 336 h, ZEAMX: maize, corn (Zea mays), 70 g ai/ha, 14 days after application, read-out: Visual Growth Reduction (%) 14 Days After Application ZEAMX

{"columns": ["compound", "result"],
 "data": [
  ["COC(=O)c1nc(-c2ccc(C(F)(F)F)nc2F)cc(N)c1Cl [Compound 74]", "0 to 29%"],
  ["COC(=O)c1nc(-c2ccc(Cl)c(F)c2SC)cc(N)c1Cl [Compound 58]", "0 to 29%"]
]}

Provide pest or weed control at 70 g/ha, recorded with Key Grass and Sedge Weeds as well as Grass Crops, of COC(=O)c1nc(-c2ccc(Cl)nc2OC)cc(N)c1Cl [Compound 48]
0 to 29%

Provide pest or weed control at 70 g/ha, recorded with Key Grass and Sedge Weeds as well as Grass Crops, of COC(=O)c1nc(-c2ccc(Cl)c(F)c2C(F)F)cc(N)c1Cl [Compound 53]
0 to 29%

Provide pest or weed control at 70 g/ha, recorded with Key Grass and Sedge Weeds as well as Grass Crops, of COC(=O)c1nc(-c2ccc(I)nc2)c(F)c(N)c1Cl [Compound 54]
45 to 59%

Provide pest or weed control at 70 g/ha, recorded with Key Grass and Sedge Weeds as well as Grass Crops, of Nc1cc(-c2ccc(Cl)c(Cl)c2Cl)nc(C(=O)O)c1Cl [Compound 93]
30 to 44%

Provide pest or weed control at 70 g/ha, recorded with Key Grass and Sedge Weeds as well as Grass Crops, of COC(=O)c1nc(-c2ccc(Cl)nc2F)cc(N)c1Cl [Compound 17]
0 to 29%

Provide pest or weed control at 70 g/ha, recorded with Key Grass and Sedge Weeds as well as Grass Crops, of Nc1cc(-c2ccc(Cl)nc2Cl)nc(C(=O)O)c1Cl [Compound 1]
0 to 29%

Provide pest or weed control at 70 g/ha, recorded with Key Grass and Sedge Weeds as well as Grass Crops, of COC(=O)c1nc(-c2ccc(C)nc2F)c(F)c(N)c1Cl [Compound 76]
0 to 29%

* * *

- Tested on: Key Grass and Sedge Weeds as well as Grass Crops
- test.name: Post-Emergent Test II (Table 6)
- Type: in vivo
- experimental.context: CYPSS (CYPES: yellow nutsedge, Cyperus esculentus), 140 g ai/ha
endpoint.name: Visual Growth Reduction (%) 14 Days After Application, CYPSS

{"columns": ["molecule", "target", "result"],
 "data": [
  ["COC(=O)c1nc(-c2ccc(Cl)c(F)c2Cl)nc(N)c1OC [Compound 42]", "Key Grass and Sedge Weeds as well as Grass Crops", "A (95-100)"],
  ["COC(=O)c1nc(-c2ccc(Cl)c(F)c2Cl)c(F)c(N)c1Cl [Compound 19]", "Key Grass and Sedge Weeds as well as Grass Crops", "A (95-100)"]
]}

* * *

- Tested on: Key Broadleaf Weed and Crop Species
- test.name: Post-Emergent Test II (Table 5)
- Type: in vivo
- experimental.context: Helianthus annuus, post-emergence, 336 h, HELAN: sunflower (Helianthus annuus), application rate 70 (kg ai/ha; footnote: g ai/ha), read-out: Visual Growth Reduction (%) 14 Days After Application HELAN
Recorded pest or weed control at 70 g/ha for the following compounds

Would you please look over these solved cases?
{"columns": ["smiles.record", "pest or weed control at 70 g/ha"],
 "data": [
  ["COc1c(N)nc(-c2ccc(C(F)(F)F)nc2)nc1C(=O)O", "60 to 74%"],
  ["COC(=O)c1nc(-c2ccc(Cl)c(F)c2Cl)cc(N)c1Cl", "75 to 84%"],
  ["Nc1cc(-c2ccc(Cl)c(F)c2C(F)F)nc(C(=O)O)c1Cl", "85 to 94%"],
  ["COC(=O)c1nc(-c2ccc(Cl)c(F)c2OC)nc(N)c1OC", "95 to 100%"]
]}

Kindly consider the entry below.
Provide pest or weed control at 70 g/ha, recorded with Key Broadleaf Weed and Crop Species, of COC(=O)c1nc(-c2ccc(C(F)(F)F)nc2)c(F)c(N)c1Cl
95 to 100%
